assay: HSF-1 activators, primary screen, NIH3T3-HGL cells, MG132 stress, luminescence, single point (AID 504408); conditions: NIH3T3-HGL HSF-1 luciferase reporter, MG132, 8 h; at 9 µM; 100% = twice DMSO control signal;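 further: 0% = median of the neutral control wells and 100% = twice that signal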
The whole screen tested about 300,000 compounds, of which about 5,200 (1.7%) were called active.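 How the source made its calls: active means mean replicate activation of at least 50% with a set share of replicates each reaching 50%; inconclusive means only one of those two conditions met; inactive means mean below 50% and too few replicates reaching it.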 The list comes from a sample in which actives are over-represented; it also holds close analogues and randomly drawn compounds.
Could you please pick one outcome from this set? active, inactive

Use the examples below as a reference point.
| Molecule | Label Value |
| --- | --- |
| O=S(=O)(NCCCc1ccccc1)c1ccc(Br)cc1 | inactive |
| NC(=O)NC(=O)C(OC(=O)CCNS(=O)(=O)c1ccccc1)c1ccccc1 (stereo unspecified) | inactive |
| Cc1nc(NC(=O)c2ccc3c(c2)OCCO3)ccc1Br | active |
| CCC1Nc2ncnc(N3CCN(c4ccccc4)CC3)c2N(Cc2ccc(Cl)cc2)C1=O (stereo unspecified) | inactive |
| O=C(O)c1cc(Cl)c(Cl)cc1C(=O)Nc1cccc2ncccc12 | active |
| O=C(Nc1nc(-c2ccco2)c(-c2ccco2)s1)c1ccco1 | active |

Recorded call for `Cc1cccc(-c2noc(-c3ccc(F)cc3)n2)c1` ?
active

Recorded call for `O=C(Nc1ccc(Cl)cn1)c1ccc2c(c1)OCCO2` ?
inactive

Recorded call for C=CCNC(=O)C1CC2c3ccccc3C1c1ccccc12 (stereo unspecified) ?
inactive

Recorded call for `O=C(Oc1ccc(-c2nnco2)cc1)c1ccc(F)c(S(=O)(=O)N2CCOCC2)c1` ?
inactive

Recorded call for `O=C(Nc1ccccc1)c1ccc2c(c1)OCCCO2` ?
inactive

====

assay: HSF-1 activators, primary screen, NIH3T3-HGL cells, MG132 stress, luminescence, single point (AID 504408); settings: NIH3T3-HGL HSF-1 luciferase reporter, MG132, 8 h; at 9 µM; active compounds read high; 100% = twice DMSO control signal;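 further: 0% = median of the neutral control wells and 100% = twice that signal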
Out of some 300,000 compounds screened, about 5,200 (1.7%) were called active. For the sample, actives were picked, then their nearest neighbours and some compounds at random.
Endpoint Name: activation (%)
Answers are plain numbers, in %.

Below: 6 molecules and their reported activation.
| Molecule | Endpoint Unit | activation |
| --- | --- | --- |
| CCc1ccc(N(CC(=O)Nc2sc3c(c2C(=O)OC)CCCC3)S(C)(=O)=O)cc1 | % | 59.7 |
| Cc1nnc(N/N=C/c2cccs2)[nH]c1=O | % | -4.02 |
| CN(N)c1nc(N2CCCC2)nc(N2CCCC2)n1 | % | -5.13 |
| COc1ccc(N2CCN(C(=O)/C(C#N)=C/c3ccccc3)CC2)cc1 | % | -4.53 |
| CCOC(=O)/C(C#N)=C/c1ccc(N2CCCCC2)cc1 | % | 54.1 |
| CCN1C(=O)[C@H]2[C@@H](c3ccc(SC4CCCCC4)c(OC)c3)N[C@@](Cc3ccccc3)(C(=O)OC)[C@H]2C1=O | % | -7.66 |

Provide activation for all items below, preserving their order.
1. CN(C(=O)COC(=O)c1ccc(Br)o1)c1c(N)n(Cc2ccccc2)c(=O)[nH]c1=O
2. S=C(c1ccc(-c2ccccc2)o1)N1CCCCC1
3. Brc1cnc2ccccc2c1N1CCCCC1
4. COC(=O)c1c(NC(=O)CSc2nncs2)sc2c1CCCCC2
5. N=c1oc2ccccc2cc1C(=O)N/N=C/c1ccccc1
6. COc1ccccc1/C=N/Nc1nc(C)c(C(C)=O)s1
7. Cc1cccc(NC(=O)c2sc(-c3ccccc3)nc2-c2ccc([N+](=O)[O-])cc2)c1

1: 5.07; 2: 63.6; 3: 4.42; 4: 17.2; 5: 22.1; 6: 55.9; 7: -61.8
